biological target: UniProtKB P51531; test: MSD SMARCA2 degradation in NCI-H1299 cell line (24 h); type: cell-based; design: HC: NCI-H1299 cells treated with DMSO; host or cells: NCI-H1299; settings: NCI-H1299 cells, read-out: SMARCA2 MSD H1299 degradation 24 h: External Abs-DC50
Measurement Type: DC50

Guide cases for DC50, answers given:
Cn1c(=O)n(C2CCC(=O)NC2=O)c2cccc(CNCCCCc3cn(Cc4cccc(N5C[C@H]6C[C@@H]5CN6/C=C/C(=O)c5ccccc5O)n4)nn3)c21 (stereo partly drawn); > 1000 nM
Cn1c(=O)n(C2CCC(=O)NC2=O)c2cccc(CCCOCCOCCOc3cccc(N4C[C@H]5C[C@@H]4CN5/C=C/C(=O)c4ccccc4O)n3)c21 (stereo partly drawn); > 1000 nM
Cn1c(=O)n(C2CCC(=O)NC2=O)c2ccc(CNCCCCCc3cn(Cc4cccc(N5C[C@H]6C[C@@H]5CN6/C=C/C(=O)c5ccccc5O)n4)nn3)cc21 (stereo partly drawn); > 1000 nM
CN(CCCC#Cc1cnc(N2C3CCC2CN(c2cc(-c4ccccc4O)nnc2N)C3)nc1)Cc1ccc2c(c1)n(C)c(=O)n2C1CCC(=O)NC1=O (stereo not drawn); < 100 nM
CN1C(=O)CCC(N2C(=O)c3cccc(OCCCCc4cn(Cc5cccc(N6C[C@H]7C[C@@H]6CN7/C=C/C(=O)c6ccccc6O)n5)nn4)c3C2=O)C1=O (stereo partly drawn); > 1000 nM

Kindly consider the entry below.
QUERY: Data request, read-out DC50, for CN[C@@H](C)C(=O)N[C@H](C(=O)N1Cc2cc(OCCOCCOCCNC(=O)c3ccc(C(C)n4cc(-c5cc(-c6ccccc6O)nnc5N)cn4)cc3)ccc2C[C@H]1C(=O)N[C@@H]1CCCc2ccccc21)C(C)(C)C (stereo partly drawn)
RESULT: > 1000 nM

###

molecular target: SMARCA2 (Homo sapiens); test: MSD SMARCA2 degradation in A549 cell line; assay type: cell-based; details: A549 cells, 24 h, read-out: SMARCA2 MSD A549 degradation 24 h: Average external-Abs DC50
Sequence (P51531 whole entry): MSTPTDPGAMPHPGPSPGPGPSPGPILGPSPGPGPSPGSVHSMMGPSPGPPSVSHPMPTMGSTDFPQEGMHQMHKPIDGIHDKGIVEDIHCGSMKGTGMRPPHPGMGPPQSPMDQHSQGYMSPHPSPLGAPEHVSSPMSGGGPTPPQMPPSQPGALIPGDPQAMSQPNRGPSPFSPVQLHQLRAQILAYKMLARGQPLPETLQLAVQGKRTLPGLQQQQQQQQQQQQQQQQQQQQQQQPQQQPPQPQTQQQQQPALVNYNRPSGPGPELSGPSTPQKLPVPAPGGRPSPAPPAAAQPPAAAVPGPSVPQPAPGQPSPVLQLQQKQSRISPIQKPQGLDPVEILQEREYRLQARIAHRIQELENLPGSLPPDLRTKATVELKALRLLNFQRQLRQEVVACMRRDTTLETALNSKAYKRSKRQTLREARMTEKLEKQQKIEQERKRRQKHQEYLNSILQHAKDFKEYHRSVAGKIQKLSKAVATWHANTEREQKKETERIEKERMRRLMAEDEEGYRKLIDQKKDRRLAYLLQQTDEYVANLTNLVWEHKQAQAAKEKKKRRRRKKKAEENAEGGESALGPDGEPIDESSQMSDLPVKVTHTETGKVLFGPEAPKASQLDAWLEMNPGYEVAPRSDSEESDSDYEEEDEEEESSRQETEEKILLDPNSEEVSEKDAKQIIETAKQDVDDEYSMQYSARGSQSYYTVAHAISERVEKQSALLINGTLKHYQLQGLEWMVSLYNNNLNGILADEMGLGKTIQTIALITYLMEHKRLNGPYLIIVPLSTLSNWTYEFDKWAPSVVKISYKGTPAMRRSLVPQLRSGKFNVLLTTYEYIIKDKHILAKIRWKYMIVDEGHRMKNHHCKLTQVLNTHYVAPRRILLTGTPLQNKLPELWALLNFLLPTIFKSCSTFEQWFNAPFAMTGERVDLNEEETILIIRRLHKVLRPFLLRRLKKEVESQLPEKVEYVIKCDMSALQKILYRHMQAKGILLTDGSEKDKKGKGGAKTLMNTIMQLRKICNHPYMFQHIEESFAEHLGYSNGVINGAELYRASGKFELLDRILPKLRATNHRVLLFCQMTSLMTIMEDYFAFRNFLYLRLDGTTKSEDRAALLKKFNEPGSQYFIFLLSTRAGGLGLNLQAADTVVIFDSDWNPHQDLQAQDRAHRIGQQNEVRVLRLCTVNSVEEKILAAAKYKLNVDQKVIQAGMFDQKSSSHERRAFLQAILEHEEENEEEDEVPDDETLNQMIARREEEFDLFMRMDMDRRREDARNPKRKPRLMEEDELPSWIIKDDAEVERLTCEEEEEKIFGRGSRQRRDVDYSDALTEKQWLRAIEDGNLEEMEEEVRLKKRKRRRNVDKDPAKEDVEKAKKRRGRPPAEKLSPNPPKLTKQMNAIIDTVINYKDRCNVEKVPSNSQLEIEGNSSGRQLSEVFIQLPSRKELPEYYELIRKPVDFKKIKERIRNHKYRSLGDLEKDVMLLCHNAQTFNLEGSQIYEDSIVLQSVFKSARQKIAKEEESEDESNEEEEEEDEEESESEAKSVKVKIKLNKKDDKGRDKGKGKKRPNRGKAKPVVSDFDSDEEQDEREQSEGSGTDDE
Measurement Type: DC50

Cc1ncsc1-c1ccc(CNC(=O)[C@@H]2C[C@@H](O)CN2C(=O)[C@@H](NC(=O)C2CN(Cc3cnc(N4C5CCC4CN(c4cc(-c6ccccc6O)nnc4N)C5)nc3)C2)C(C)(C)C)cc1 [I-385]; 0.501 to 1 µM

QUERY: Data request, read-out DC50, for COCC(=O)N1CCCc2cc(OCC(=O)NCCCN3CCC(c4cnc(N5C6CCC5CN(c5cc(-c7ccccc7O)nnc5N)C6)nc4)CC3)ccc21 [I-526]
RESULT: > 1 µM

QUERY: Data request, read-out DC50, for Cc1ncsc1-c1ccc(CNC(=O)[C@@H]2C[C@@H](O)CN2C(=O)[C@@H](NC(=O)N2CCN(C(=O)c3cnc(N4C5CCC4CN(c4cc(-c6ccccc6O)nnc4N)C5)nc3)CC2)C(C)(C)C)cc1 [I-343]
RESULT: > 1 µM

###

Molecular target: UniProtKB P51531
Experiment: MSD SMARCA2 degradation in NCI-H1299 cell line (24 h)
Format: cell-based
Design: HC: NCI-H1299 cells treated with DMSO; host or cells: NCI-H1299
Conditions: NCI-H1299, NCI-H1299 cells
Protocol: Example 32. MSD SMARCA2 Degradation in […] Cell Line Cell Culture: Cells were cultured in exponential growth phase. Compound Preparation and Treatment: NCI-H1299 cells were seeded into the 96-well plate at 4.0*10^4 cells per 100 ul per well. […] MSD Procedure: The MSD plate was coated with 40 ul cell lysate and incubated at 4° C. overnight. […] MSD plate was washed 3 times with 150 ul 1×TBST per well and 2×MSD reading buffer was added, 150 ul per well, and diluted from 4× with water. […]
Parameter Dmax: see the listing below.

Guide cases for Dmax, answers given:
Cn1c(=O)n(C2CCC(=O)NC2=O)c2ccc(CCN3CCN(C(=O)c4cnc(N5C6CCC5CN(c5cc(-c7ccccc7O)nnc5N)C6)nc4)CC3)cc21 (stereo not drawn); > 90%
CN(CCCN1CCC(c2cccc3c2n(C)c(=O)n3C2CCC(=O)NC2=O)CC1)Cc1ccc(N2CCN(c3cc(-c4ccccc4O)nnc3N)CC2)cc1 (stereo not drawn); > 90%
Cn1c(=O)n(C2CCC(=O)NC2=O)c2cccc(CCCCCCCc3cn(Cc4cccc(N5C[C@H]6C[C@@H]5CN6/C=C/C(=O)c5ccccc5O)n4)nn3)c21 (stereo partly drawn); < 50%

QUERY: Data request, read-out Dmax, for Cn1c(=O)n(C2CCC(=O)NC2=O)c2cccc(CCCN3CCC[C@@H](Cn4cc(-c5cc(-c6ccccc6O)nnc5N)cn4)C3)c21 (stereo partly drawn)
RESULT: 70 to 90%

QUERY: Data request, read-out Dmax, for `Cc1ncsc1-c1ccc(CNC(=O)[C@@H]2C[C@@H](O)CN2C(=O)[C@@H](NC(=O)CN2CCC(c3cnc(N4CCN(c5cc(-c6ccccc6O)nnc5N)CC4)nc3)CC2)C(C)(C)C)cc1`
RESULT: > 90%

QUERY: Data request, read-out Dmax, for Cn1c(=O)n(C2CCC(=O)NC2=O)c2ccc(CCCOCCCCN3CCN(Cc4ccc(-c5cc(-c6ccccc6O)nnc5N)cc4)CC3)cc21 (stereo not drawn)
RESULT: 50 to 70%

QUERY: Data request, read-out Dmax, for CN(Cc1ccc(N2CCN(c3cc(-c4ccccc4O)nnc3N)CC2)cc1)CC1CCN(Cc2cccc3c2n(C)c(=O)n3C2CCC(=O)NC2=O)CC1 (stereo not drawn)
RESULT: > 90%

QUERY: Data request, read-out Dmax, for `Cc1ncsc1-c1ccc(CNC(=O)[C@@H]2C[C@@H](O)CN2C(=O)[C@@H](NC(=O)CCCCCCCCCN(C)Cc2ccc(N3CCN(c4cc(-c5ccccc5O)nnc4N)CC3)cc2)C(C)(C)C)cc1`
RESULT: 70 to 90%

QUERY: Data request, read-out Dmax, for Cn1c(=O)n(C2CCC(=O)NC2=O)c2ccc(CCC(=O)N3CCC(c4cnc(N5C6CCC5CN(c5cc(-c7ccccc7O)nnc5N)C6)nc4)CC3)cc21 (stereo not drawn)
RESULT: 70 to 90%

QUERY: Data request, read-out Dmax, for Cn1c(=O)n(C2CCC(=O)NC2=O)c2ccc(CCCCCc3cn(Cc4cccc(N5C[C@H]6C[C@@H]5CN6/C=C/C(=O)c5ccccc5O)n4)nn3)cc21 (stereo partly drawn)
RESULT: < 50%

QUERY: Data request, read-out Dmax, for Cn1c(=O)n(C2CCC(=O)NC2=O)c2ccc(CCCN3CCC(c4cnc(N5CCN(c6cc(-c7ccccc7O)nnc6N)CC5)nc4)CC3)cc21 (stereo not drawn)
RESULT: > 90%

QUERY: Data request, read-out Dmax, for Cn1c(=O)n(C2CCC(=O)NC2=O)c2cccc(CCCCCCOc3ccc(CN4CCN(c5cc(-c6ccccc6O)nnc5N)CC4)cc3)c21 (stereo not drawn)
RESULT: < 50%

QUERY: Data request, read-out Dmax, for Cn1c(=O)n(C2CCC(=O)NC2=O)c2cccc(CCCCCCCOc3ccc(CN4CCN(c5cc(-c6ccccc6O)nnc5N)CC4)cc3)c21 (stereo not drawn)
RESULT: 50 to 70%

QUERY: Data request, read-out Dmax, for `Cc1ncsc1-c1ccc(CNC(=O)[C@@H]2C[C@@H](O)CN2C(=O)[C@@H](NC(=O)CN(C)CC#Cc2cnc(N3C4CCC3CN(c3cc(-c5ccccc5O)nnc3N)C4)nc2)C(C)(C)C)cc1`
RESULT: 70 to 90%

QUERY: Data request, read-out Dmax, for Cn1c(=O)n(C2CCC(=O)NC2=O)c2cccc(CCCCCN3CCC(n4cc(-c5cc(-c6ccccc6O)nnc5N)cn4)CC3)c21 (stereo not drawn)
RESULT: > 90%

QUERY: Data request, read-out Dmax, for CN(Cc1ccc2c(c1)n(C)c(=O)n2C1CCC(=O)NC1=O)C1CCN(Cc2cnc(N3C4CCC3CN(c3cc(-c5ccccc5O)nnc3N)C4)nc2)CC1 (stereo not drawn)
RESULT: > 90%

QUERY: Data request, read-out Dmax, for CN(CCCc1cnc(N2C3CCC2CN(c2cc(-c4ccccc4O)nnc2N)C3)nc1)Cc1cccc2c1n(C)c(=O)n2C1CCC(=O)NC1=O (stereo not drawn)
RESULT: > 90%

QUERY: Data request, read-out Dmax, for Cn1c(=O)n(C2CCC(=O)NC2=O)c2cccc(CCCOCC3CN(Cc4ccc(N5CCN(c6cc(-c7ccccc7O)nnc6N)CC5)cc4)C3)c21 (stereo not drawn)
RESULT: 70 to 90%

QUERY: Data request, read-out Dmax, for Cn1c(=O)n(C2CCC(=O)NC2=O)c2ccc(CCCCCCCCCCOc3cccc(CN4CCN(c5cc(-c6ccccc6O)nnc5N)CC4)c3)cc21 (stereo not drawn)
RESULT: 50 to 70%

QUERY: Data request, read-out Dmax, for CN1C(=O)CCC(n2c(=O)n(C)c3cc(CCCN4CCC(c5cnc(N6C7CCC6CN(c6cc(-c8ccccc8O)nnc6N)C7)nc5)CC4)ccc32)C1=O (stereo not drawn)
RESULT: < 50%

QUERY: Data request, read-out Dmax, for Cn1c(=O)n(C2CCC(=O)NC2=O)c2ccc(COCCCN3CCN(Cc4ccc(-c5cc(-c6ccccc6O)nnc5N)cc4)CC3)cc21 (stereo not drawn)
RESULT: < 50%

QUERY: Data request, read-out Dmax, for Cn1c(=O)n(C2CCC(=O)NC2=O)c2cccc(CNCCCCCCc3cn(Cc4cccc(N5C[C@H]6C[C@@H]5CN6/C=C/C(=O)c5ccccc5O)n4)nn3)c21 (stereo partly drawn)
RESULT: < 50%

QUERY: Data request, read-out Dmax, for CN(CCCCCc1cnc(N2C3CCC2CN(c2cc(-c4ccccc4O)nnc2N)C3)nc1)Cc1ccc2c(c1)n(C)c(=O)n2C1CCC(=O)NC1=O (stereo not drawn)
RESULT: > 90%

QUERY: Data request, read-out Dmax, for Cn1c(=O)n(C2CCC(=O)NC2=O)c2ccc(C#CCCc3cn(Cc4cccc(N5C[C@H]6C[C@@H]5CN6/C=C/C(=O)c5ccccc5O)n4)nn3)cc21 (stereo partly drawn)
RESULT: < 50%
